- experimentalTarget: Human immunodeficiency virus type 1 reverse transcriptase (Human immunodeficiency virus 1, UniProt Q72547, K65R)
- measurementDescription: Binding affinity to HIV1 recombinant reverse transcriptase p66/p51 K65R mutant expressed in Escherichia coli assessed as incorporation of drug to DNA by gel electrophoresis
Could you please report measured Kd for the items listed next?
Provide only the numeric value, understood in µM.

Fill in: Kd of BP(=O)(CO[C@H](C)Cn1cnc2c(N)ncnc21)OP(=O)(O)OP(=O)(O)O (stereo not given in full) is ___
35

Here is the next compound: BP(=O)(COCCn1cnc2c(N)ncnc21)OP(=O)(O)OP(=O)(O)O (stereo not given)
7.1

Can you check Nc1ncnc2c1ncn2CCOCP(=O)(O)OP(=O)(O)OP(=O)(O)O [ADEFOVIR DIPHOSPHATE] next?
7.7

Entry `Nc1ncnc2c1ncn2[C@H]1C[C@H](O)[C@@H](COP(=O)(O)OP(=O)(O)OP(=O)(O)O)O1` please
6.9

Continue with `C[C@H](Cn1cnc2c(N)ncnc21)OCP(=O)(O)OP(=O)(O)OP(=O)(O)O`
18

###

- Test system: Human immunodeficiency virus type 1 reverse transcriptase (Human immunodeficiency virus 1), Q72547 [K65R]
- measurementDescription: Binding affinity to HIV1 recombinant reverse transcriptase p66/p51 K65R mutant expressed in Escherichia coli assessed as ratio of catalytic rate constant to Kd for incorporation of drug to DNA by gel electrophoresis
Exercise: for every item that follows, state its recorded Ratio.
Reply briefly: the number, and no unit.

Consider the molecule Nc1ncnc2c1ncn2CCOCP(=O)(O)OP(=O)(O)OP(=O)(O)O [ADEFOVIR DIPHOSPHATE] and give its measured Ratio.
0.1

And BP(=O)(CO[C@H](C)Cn1cnc2c(N)ncnc21)OP(=O)(O)OP(=O)(O)O (stereo not given in full) ?
0.17

// repeat for BP(=O)(COCCn1cnc2c(N)ncnc21)OP(=O)(O)OP(=O)(O)O (stereo not given) and report
0.2

Similarly, `Nc1ncnc2c1ncn2[C@H]1C[C@H](O)[C@@H](COP(=O)(O)OP(=O)(O)OP(=O)(O)O)O1` ?
1.7

Now consider `C[C@H](Cn1cnc2c(N)ncnc21)OCP(=O)(O)OP(=O)(O)OP(=O)(O)O` .
0.02

###

- experimentalTarget: Human immunodeficiency virus type 1 reverse transcriptase (Human immunodeficiency virus 1)
- measurementDescription: Binding affinity to wild type reverse transcriptase assessed as ratio of catalytic rate constant to Kd for incorporation of drug to DNA by gel electrophoresis
Provide the recorded Ratio for the entries that follow.
Please reply with the number alone, leaving off any unit.

# get_value(readout='Ratio', item= `C[C@H](Cn1cnc2c(N)ncnc21)OCP(=O)(O)OP(=O)(O)OP(=O)(O)O` )
0.3

Similarly, Nc1ncnc2c1ncn2CCOCP(=O)(O)OP(=O)(O)OP(=O)(O)O [ADEFOVIR DIPHOSPHATE] ?
0.9

And the next one, `Nc1ncnc2c1ncn2[C@H]1C[C@H](O)[C@@H](COP(=O)(O)OP(=O)(O)OP(=O)(O)O)O1` ?
6.7

Another: BP(=O)(COCCn1cnc2c(N)ncnc21)OP(=O)(O)OP(=O)(O)O (stereo not given)
0.3

Next entry: BP(=O)(CO[C@H](C)Cn1cnc2c(N)ncnc21)OP(=O)(O)OP(=O)(O)O (stereo not given in full)
0.7

###

- System: Human immunodeficiency virus 1
- measurementDescription: Ratio of IC50 for HIV1 reverse transcriptase p66/p51 K65R mutant to IC50 for HIV1 wild type reverse transcriptase
endpointLabel: Ratio IC50
Respond with the number and no other words.

May I ask what Ratio IC50 has been recorded for Nc1ncnc2c1ncn2CCOCP(=O)(O)OP(=O)(O)OP(=O)(O)O [ADEFOVIR DIPHOSPHATE] ?
6

Please give the result for BP(=O)(COCCn1cnc2c(N)ncnc21)OP(=O)(O)OP(=O)(O)O (centres undefined) too.
0.7

What would you report for `C[C@H](Cn1cnc2c(N)ncnc21)OCP(=O)(O)OP(=O)(O)OP(=O)(O)O` ?
8

Same question, BP(=O)(CO[C@H](C)Cn1cnc2c(N)ncnc21)OP(=O)(O)OP(=O)(O)O (some centres undefined) this time
1.2

###

- experimentalTarget: Human immunodeficiency virus type 1 reverse transcriptase (Human immunodeficiency virus 1) (UniProt Q72547)
- measurementDescription: Inhibition of HIV1 wild type reverse transcriptase p66/p51 DNA polymerase activity assessed as formation of terminated DNA products
- Set-up: concentration or dose not given beside the values
- cond: concentration not given here
endpointLabel: inhibition (%)
Express your answer in %, writing the number without its unit.

Requested field: inhibition. Item: BP(=O)(CO[C@H](C)Cn1cnc2c(N)ncnc21)OP(=O)(O)OP(=O)(O)O (stereo not given in full)
74

What would you report for `Nc1ncnc2c1ncn2[C@H]1C[C@H](O)[C@@H](COP(=O)(O)OP(=O)(O)OP(=O)(O)O)O1` ?
75

Now consider BP(=O)(COCCn1cnc2c(N)ncnc21)OP(=O)(O)OP(=O)(O)O (stereo not given) and answer again.
69

Nc1ncnc2c1ncn2CCOCP(=O)(O)OP(=O)(O)OP(=O)(O)O [ADEFOVIR DIPHOSPHATE] ?
72

Another molecule to look at: `C[C@H](Cn1cnc2c(N)ncnc21)OCP(=O)(O)OP(=O)(O)OP(=O)(O)O`
74

###

- Tested on: Human immunodeficiency virus type 1 reverse transcriptase (Human immunodeficiency virus 1), Q72547 [K65R]
- measurementDescription: Binding affinity to HIV1 recombinant reverse transcriptase p66/p51 K65R mutant assessed as ratio of catalytic rate constant to Kd for dATP to drug by gel electrophoresis
For each of the molecules below, state its Ratio.
Please respond with just the number, no unit label.

Looking for the measured Ratio of BP(=O)(COCCn1cnc2c(N)ncnc21)OP(=O)(O)OP(=O)(O)O (centres undefined) , can you help?
8.8

Another molecule to check: BP(=O)(CO[C@H](C)Cn1cnc2c(N)ncnc21)OP(=O)(O)OP(=O)(O)O (some centres undefined)
10

Same read-out for Nc1ncnc2c1ncn2CCOCP(=O)(O)OP(=O)(O)OP(=O)(O)O [ADEFOVIR DIPHOSPHATE] ?
17.9

Can you handle `C[C@H](Cn1cnc2c(N)ncnc21)OCP(=O)(O)OP(=O)(O)OP(=O)(O)O` next?
97.8

###

- experimentalTarget: Human immunodeficiency virus type 1 reverse transcriptase (Human immunodeficiency virus 1, UniProt Q72547)
Kindly state IC50 for each of the entries shown.
Your answer should be a number followed by the unit of measure.

Can you share its IC50? I mean this compound: BP(=O)(CO[C@H](C)Cn1cnc2c(N)ncnc21)OP(=O)(O)OP(=O)(O)O (some centres undefined)
14.5 µM

Consider next the compound `C[C@H](Cn1cnc2c(N)ncnc21)OCP(=O)(O)OP(=O)(O)OP(=O)(O)O` in the same way.
22 µM

Now consider Nc1ncnc2c1ncn2CCOCP(=O)(O)OP(=O)(O)OP(=O)(O)O [ADEFOVIR DIPHOSPHATE] and answer again.
8.3 µM

Same again, this time with BP(=O)(COCCn1cnc2c(N)ncnc21)OP(=O)(O)OP(=O)(O)O (centres undefined)
17 µM

###

- experimentalTarget: Human immunodeficiency virus type 1 reverse transcriptase (Human immunodeficiency virus 1, UniProt Q72547)
pKd: −log10 of the molar value.
Response key: MET means pKd >= 5; NOT MET means pKd < 5.

Test whether the compound `C[C@H](Cn1cnc2c(N)ncnc21)OCP(=O)(O)OP(=O)(O)OP(=O)(O)O` records pKd of 5 or higher.
NOT MET

Please do the same for BP(=O)(COCCn1cnc2c(N)ncnc21)OP(=O)(O)OP(=O)(O)O (stereo not given) as well.
MET

Now try BP(=O)(CO[C@H](C)Cn1cnc2c(N)ncnc21)OP(=O)(O)OP(=O)(O)O (stereo not given in full) .
NOT MET

###

- Test system: Human immunodeficiency virus 1
- measurementDescription: Inhibition of HIV1 […] reverse transcriptase p66/p51 R72A mutant DNA polymerase activity assessed as formation of terminated DNA products
- cond: concentration not given here
endpointLabel: inhibition (%)
Write it as a number; the unit % goes unstated.

Lab note: need inhibition with Human immunodeficiency virus 1 for entry BP(=O)(CO[C@H](C)Cn1cnc2c(N)ncnc21)OP(=O)(O)OP(=O)(O)O (some centres undefined) , please look it up.
45

Input `C[C@H](Cn1cnc2c(N)ncnc21)OCP(=O)(O)OP(=O)(O)OP(=O)(O)O`
0.2

Nc1ncnc2c1ncn2CCOCP(=O)(O)OP(=O)(O)OP(=O)(O)O [ADEFOVIR DIPHOSPHATE] ?
1.6

Please give the result for BP(=O)(COCCn1cnc2c(N)ncnc21)OP(=O)(O)OP(=O)(O)O (centres undefined) too.
53

###

Field: Ratio. Provide a value for each of the compounds that follow.
- experimentalTarget: Human immunodeficiency virus type 1 reverse transcriptase (Human immunodeficiency virus 1)
- measurementDescription: Binding affinity to HIV1 wild type reverse transcriptase p66/p51 assessed as ratio of catalytic rate constant to Kd for dATP to drug by gel electrophoresis

Any idea what its Ratio is? The compound is `C[C@H](Cn1cnc2c(N)ncnc21)OCP(=O)(O)OP(=O)(O)OP(=O)(O)O`
21.9

Now consider Nc1ncnc2c1ncn2CCOCP(=O)(O)OP(=O)(O)OP(=O)(O)O [ADEFOVIR DIPHOSPHATE] and answer again.
7.7

Next compound up: BP(=O)(CO[C@H](C)Cn1cnc2c(N)ncnc21)OP(=O)(O)OP(=O)(O)O (some centres undefined)
9.6

Input BP(=O)(COCCn1cnc2c(N)ncnc21)OP(=O)(O)OP(=O)(O)O (centres undefined)
21.7
